experiment: Equilibrium solubility method in water; type: physicochemical; details: thermodynamic from solid, saturated solution stirred over night, 0.45 μm filtrate, UV 260 nm
Measured attribute: solubility (µg/mL)

INSERT INTO assay_data (molecule, measured_attribute, recorded_result) VALUES
  ('CC[C@@H]([C@H](C)O)n1ncn(-c2ccc(N3CCN(c4ccc(OC[C@@H]5CO[C@@](Cn6cncn6)(c6ccc(F)cc6F)C5)cc4)CC3)cc2)c1=O [Crystalline Form Y, posaconazole]', 'solubility', 1.5);
